- Tested on: AncSZ
- assay_procedure: phosphorylation enrichment, bacterial display (enrichment ratio); higher = better substrate or ligand; peptides without Tyr show the background
measurement_label: phosphorylation enrichment
Answer with a number only.

Record for QDLTDYLMKIL [ACTA2_Y190_R185Q] under target or system AncSZ: phosphorylation enrichment reported as 1.01

Record for VNKIFYPDFIV [LIG3_Y768_YF] under target or system AncSZ: phosphorylation enrichment reported as 1

Record for YGGRDYSLDEF [MYOF_Y1705] under target or system AncSZ: phosphorylation enrichment reported as 0.981

###

- measured_target: FGFR1 (UniProt P11362)
- Sequence (P11362 whole entry, looked up): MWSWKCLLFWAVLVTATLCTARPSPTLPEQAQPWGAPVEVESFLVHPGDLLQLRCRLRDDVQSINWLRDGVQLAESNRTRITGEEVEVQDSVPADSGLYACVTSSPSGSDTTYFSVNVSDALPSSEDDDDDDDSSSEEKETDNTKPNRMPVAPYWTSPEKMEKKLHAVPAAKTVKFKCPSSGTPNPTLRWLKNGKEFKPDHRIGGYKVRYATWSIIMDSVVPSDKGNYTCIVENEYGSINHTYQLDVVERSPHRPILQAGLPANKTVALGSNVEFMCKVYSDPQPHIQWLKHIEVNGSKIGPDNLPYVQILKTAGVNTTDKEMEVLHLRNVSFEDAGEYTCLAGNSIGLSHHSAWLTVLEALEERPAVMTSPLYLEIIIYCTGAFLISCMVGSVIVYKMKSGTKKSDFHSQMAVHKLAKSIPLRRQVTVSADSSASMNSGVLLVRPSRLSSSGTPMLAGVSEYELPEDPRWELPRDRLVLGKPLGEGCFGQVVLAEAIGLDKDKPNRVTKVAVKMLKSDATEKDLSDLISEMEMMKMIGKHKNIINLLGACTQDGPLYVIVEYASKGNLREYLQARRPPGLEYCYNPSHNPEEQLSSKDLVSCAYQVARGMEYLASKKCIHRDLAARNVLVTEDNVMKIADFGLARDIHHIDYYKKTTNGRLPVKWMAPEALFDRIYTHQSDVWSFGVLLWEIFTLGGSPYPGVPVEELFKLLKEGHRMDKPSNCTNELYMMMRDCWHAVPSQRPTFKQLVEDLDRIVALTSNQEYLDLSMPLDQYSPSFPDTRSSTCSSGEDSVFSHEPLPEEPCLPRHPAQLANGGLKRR
- assay_procedure: phosphorylation enrichment, bacterial display (enrichment ratio); higher = better substrate or ligand; peptides without Tyr show the background
Each record here notes measured phosphorylation enrichment.

Check out these entries, answers already filled in.
query_sequence: RDEHGYISRCF [HSPB1_Y133_Q128R]
phosphorylation enrichment: 0.722
//
query_sequence: LFEDRYLLGPS [ASS1_Y87_T91P_YF]
phosphorylation enrichment: 0.679
//
query_sequence: EFGSGYPNDPK [RNASEH2A_Y210_D205E_YF]
phosphorylation enrichment: 0.406
//
query_sequence: LAAAKYKLNVD [SMARCA2_Y1190]
phosphorylation enrichment: 0.322
//
query_sequence: FYLGAYDRFLP [SLC22A5_Y486_V481F]
phosphorylation enrichment: 0.712

// phosphorylation enrichment lookup, sequence = ALTDNYMYVVI [HAGH_Y61_L64V] , result: 11.1

// phosphorylation enrichment lookup, sequence = IIQRAYRGHLL [SCN1A_Y1926_R1928G] , result: 0.447

// phosphorylation enrichment lookup, sequence = DLAGRYYALRS [CKB_Y173_K177R] , result: 0.963

// phosphorylation enrichment lookup, sequence = PELINYHQHFS [BTK_Y361_N365Y_YF] , result: 0.591

// phosphorylation enrichment lookup, sequence = RSGNCYLDIRP [FBN1_Y1535] , result: 0.802

// phosphorylation enrichment lookup, sequence = QYKDKYLAKHN [CASK_Y712] , result: 0.526

###

Each record here notes measured SH2 binding enrichment.
- measured_target: Grb2 SH2 (UniProt P62993)
- Sequence (P62993 whole entry, looked up): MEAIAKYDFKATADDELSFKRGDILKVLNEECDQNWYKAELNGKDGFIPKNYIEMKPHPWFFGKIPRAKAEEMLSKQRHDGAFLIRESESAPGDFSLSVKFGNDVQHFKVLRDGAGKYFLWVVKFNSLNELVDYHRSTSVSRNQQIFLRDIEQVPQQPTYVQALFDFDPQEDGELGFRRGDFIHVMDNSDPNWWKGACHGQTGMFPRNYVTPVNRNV
- assay_procedure: SH2 binding enrichment of the phosphorylated peptide, bacterial display (enrichment ratio); higher = better substrate or ligand; peptides without Tyr show the background
Answer with a number only.

Check out these entries, answers already filled in.
query_sequence: EKNANYKEGTF [CLRN1_Y171_I168N_YF]
measurement: 0.944
--
query_sequence: SAVTGYRVNVI [FN1_Y937_D940N]
measurement: 0.95
--
query_sequence: FDGGCYEQLFV [MC4R_Y41_S36Y_YF]
measurement: 0.709
--
query_sequence: KKCTRYIDCDR [ASPA_Y64_L69R]
measurement: 0.974
--
query_sequence: EHFSFYGMKAV [SLC15A2_Y61_R57H_YF]
measurement: 0.795

Record for HEGKIYEFNQV [ZNF665_Y162_YF] under target or system Grb2 SH2 (UniProt P62993): SH2 binding enrichment reported as 0.82

Record for RRIHCYRGHLW [VHL_Y112_S111C] under target or system Grb2 SH2 (UniProt P62993): SH2 binding enrichment reported as 0.722

Record for RLLVVYSWTQR [HBB_Y36_P37S] under target or system Grb2 SH2 (UniProt P62993): SH2 binding enrichment reported as 1.57

###

- measured_target: FGFR1 (UniProt P11362)
- assay_procedure: phosphorylation enrichment, bacterial display (enrichment ratio); higher = better substrate or ligand; peptides without Tyr show the background
measurement_label: phosphorylation enrichment
Answer with a number only.

Check out these entries, answers already filled in.
query_sequence: CGTPDNIAPEI [PRKCG_Y521_Y521N]
measurement_label: phosphorylation enrichment
measurement: 0.51
//
query_sequence: TCFDKYTGNTF [FN1_Y101_YF]
measurement_label: phosphorylation enrichment
measurement: 0.508
//
query_sequence: CSDPSYVKQME [CDC5L_Y464_Y459C]
measurement_label: phosphorylation enrichment
measurement: 0.488
//
query_sequence: PLFRKYWPNHI [GREB1L_Y1560_YF]
measurement_label: phosphorylation enrichment
measurement: 0.505

In the following, a different sequence is considered.
// phosphorylation enrichment lookup, sequence = CGQDPYIRELG [UROS_Y19] , result: 0.497

###

- measured_target: FGFR1 (UniProt P11362)
- assay_procedure: phosphorylation enrichment, bacterial display (enrichment ratio); higher = better substrate or ligand; peptides without Tyr show the background
Give true (1) when the value for phosphorylation enrichment is at least 0.6. Give false (0) when it is less.

query_sequence: PLLLSYYLIKW [NUP160_Y773]
class_name: true (1)

query_sequence: KDFETYQSFQN [CTNND2_Y1157_P1159S_YF]
class_name: false (0)

query_sequence: CTTIHYNFLCN [TP53_Y234_M237L_YF]
class_name: false (0)

query_sequence: EKNANYKEGTF [CLRN1_Y171_I168N_YF]
class_name: false (0)

query_sequence: KMKGDYYRYLA [YWHAG_Y130]
class_name: true (1)

*Q* Would you say YCIDHYLGKEM [G6PD_Y202_R198C] shows phosphorylation enrichment at minimum 0.6?
*A* false (0)

###

- measured_target: Grb2 SH2 (UniProt P62993)
- assay_procedure: SH2 binding enrichment of the phosphorylated peptide, bacterial display (enrichment ratio); higher = better substrate or ligand; peptides without Tyr show the background
measurement_label: SH2 binding enrichment
Answer with a number only.

Check out these entries, answers already filled in.
query_sequence: LLSISYVGCSL [ADGRD1_Y571_S567L]
measured_target: Grb2 SH2 (UniProt P62993)
measurement: 0.96
//
query_sequence: FGPPQYNIQFS [ERBB2IP_Y977_YF]
measured_target: Grb2 SH2 (UniProt P62993)
measurement: 0.907
//
query_sequence: SSVAGYACLAY [MVD_Y131_A128V]
measured_target: Grb2 SH2 (UniProt P62993)
measurement: 0.777
//
query_sequence: AIDDKYSRREE [SART1_Y685]
measured_target: Grb2 SH2 (UniProt P62993)
measurement: 0.937
//
query_sequence: VPLLEYYRDIF [CDAN1_Y712]
measured_target: Grb2 SH2 (UniProt P62993)
measurement: 0.911

// SH2 binding enrichment lookup, sequence = STSKTYVISRT [RBBP6_Y87] , result: 0.74

// SH2 binding enrichment lookup, sequence = CGPLLYGLVHQ [PRKCG_Y122_S119P] , result: 0.815

###

Each record here notes measured SH2 binding enrichment.
- measured_target: Grb2 SH2 (UniProt P62993)
- assay_procedure: SH2 binding enrichment of the phosphorylated peptide, bacterial display (enrichment ratio); higher = better substrate or ligand; peptides without Tyr show the background
Answer with a number only.

Check out these entries, answers already filled in.
query_sequence: ELAVNYQEQAS [SLC9A9_Y591_I589V]
measurement_label: SH2 binding enrichment
measurement: 0.964
//
query_sequence: SMEGLYSSTQD [CLIC5_Y111]
measurement_label: SH2 binding enrichment
measurement: 0.777
//
query_sequence: AAVDEYLEFRR [FAM221A_Y17_YF]
measurement_label: SH2 binding enrichment
measurement: 0.926

Record for ATATDYHTTSH [SLC4A1_Y46] under target or system Grb2 SH2 (UniProt P62993): SH2 binding enrichment reported as 0.872

Record for SSSAIYDNPDL [DCP1B_Y191_N195D] under target or system Grb2 SH2 (UniProt P62993): SH2 binding enrichment reported as 0.667

Record for EQKKFYNAVKK [SCN5A_Y1495_M1498V_YF] under target or system Grb2 SH2 (UniProt P62993): SH2 binding enrichment reported as 0.966

Record for FGISGYVVDSV [MAP2K3_Y214_L215V] under target or system Grb2 SH2 (UniProt P62993): SH2 binding enrichment reported as 0.742

Record for NLVSEYQQFQD [TUBB3_Y422_D417N_YF] under target or system Grb2 SH2 (UniProt P62993): SH2 binding enrichment reported as 0.74

Record for CRIELYRIVES [IGFBP1_Y181_V183I] under target or system Grb2 SH2 (UniProt P62993): SH2 binding enrichment reported as 0.888

Record for IGEVVYQRAAM [GRIN2A_Y502_V506A] under target or system Grb2 SH2 (UniProt P62993): SH2 binding enrichment reported as 0.84

Record for LVMFIYVIFGM [SCN1A_Y1684_A1685V] under target or system Grb2 SH2 (UniProt P62993): SH2 binding enrichment reported as 2.05

Record for VNNTVYGIDAM [EIF3J_Y143_A141T] under target or system Grb2 SH2 (UniProt P62993): SH2 binding enrichment reported as 0.984

Record for EKQVAYCPSGR [ROS1_Y2323_K2328R] under target or system Grb2 SH2 (UniProt P62993): SH2 binding enrichment reported as 1.01

Record for KDKLPYPYDDP [GPX2_Y125] under target or system Grb2 SH2 (UniProt P62993): SH2 binding enrichment reported as 0.889
